subject of test: LCAT (Homo sapiens)
Construct: The obtained fraction was dialyzed against phosphate-buffered saline (pH 7.4) and used as an enzyme source and an acceptor for LCAT
Sequence (P04180 25-440): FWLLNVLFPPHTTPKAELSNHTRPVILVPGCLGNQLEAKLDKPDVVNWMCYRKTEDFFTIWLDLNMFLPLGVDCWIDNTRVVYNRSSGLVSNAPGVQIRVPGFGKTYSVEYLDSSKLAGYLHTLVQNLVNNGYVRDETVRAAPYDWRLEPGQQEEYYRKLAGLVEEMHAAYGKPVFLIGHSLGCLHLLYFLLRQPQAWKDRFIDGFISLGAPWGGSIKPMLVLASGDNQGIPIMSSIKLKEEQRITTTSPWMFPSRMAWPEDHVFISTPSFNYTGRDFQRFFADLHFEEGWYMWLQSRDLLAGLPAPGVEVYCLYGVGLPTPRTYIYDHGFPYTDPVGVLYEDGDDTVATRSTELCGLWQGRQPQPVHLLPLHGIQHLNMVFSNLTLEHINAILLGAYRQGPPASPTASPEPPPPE
method notes: LCAT Activity Measurement (In Vitro)
test context: EC50 of LCAT activation; HDL3 fraction from plasma of a healthy person as enzyme source and acceptor; [14C]cholesterol; 37° C., approximately 16 hours
pEC50: −log10 of the molar value. Where a name gives a salt, the structure may show the parent alone.
measurement type: pEC50

Below, each entry is followed by its recorded pEC50 result.
- compound: "O=C1CC(O)(C(F)(F)F)c2c(C3CCN(c4cnc(C(F)(F)F)nc4)CC3)n[nH]c2N1 (centres unmarked)"
  pEC50: 7.89
- compound: "CC(C)c1cc(N2CCC(c3n[nH]c4c3C(O)(C(F)(F)F)CC(=O)N4)CC2)nc(C(C)C)n1 (centres unmarked)"
  pEC50: 6.66
- compound: "O=C1CC(O)(C(F)(F)F)c2c(C3CCN(c4ccc(F)cn4)CC3)n[nH]c2N1 (centres unmarked)"
  pEC50: 6.60
- compound: "CC(C)Oc1ccc(N2CCC(c3n[nH]c4c3C(O)(C(F)(F)F)CC(=O)N4)CC2)nn1 (centres unmarked) [Example 18, hydrochloride]"
  pEC50: 7.00
- compound: "N#Cc1ccnc(N2CCC(c3n[nH]c4c3C(O)(C(F)(F)F)CC(=O)N4)CC2)c1 (centres unmarked)"
  pEC50: 7.25

1. N#Cc1ccc(N2CCC(c3n[nH]c4c3C(O)(C(F)(F)F)CC(=O)N4)CC2)cc1 (centres unmarked)
2. O=C1CC(O)(C(F)(F)F)c2c(C3CCN(c4ccc(C(F)(F)F)cn4)CC3)n[nH]c2N1 (single isomer, unassigned; (+)) [Compound 49-2]
3. O=C1CC(O)(C(F)(F)F)c2c(C3CCN(c4ccc(-c5ccccc5)nn4)CC3)n[nH]c2N1 (centres unmarked)
With regard to pEC50, arrange the entries in ascending order, please. Could you list the labels in the order requested?
2, 1, 3

====

subject of test: LCAT (Homo sapiens, UniProt P04180)
Construct: The obtained fraction was dialyzed against phosphate-buffered saline (pH 7.4) and used as an enzyme source and an acceptor for LCAT
method notes: LCAT Activity Measurement (In Vitro)
test context: EC50 of LCAT activation; HDL3 fraction from plasma of a healthy person as enzyme source and acceptor; [14C]cholesterol; 37° C., approximately 16 hours
measurement type: EC50 (nM)

Below, each entry is followed by its recorded EC50 result.
- compound: "COC(=O)c1cc(N2CCC(c3n[nH]c4c3C(O)(C(F)(F)F)CC(=O)N4)CC2)ncc1C(F)(F)F (stereo not shown) [Example 82]"
  EC50, nM: 32
- compound: "O=C1CC(O)(C(F)(F)F)c2c(C3CCN(c4ccc(OC(F)F)cn4)CC3)n[nH]c2N1 (stereo not shown) [Example 51]"
  EC50, nM: 81

P. CN(C)c1nc(N2CCC(c3n[nH]c4c3C(O)(C(F)(F)F)CC(=O)N4)CC2)cc(C(F)(F)F)n1 (stereo not shown) [Example 93]
Q. COc1ccnc(N2CCC(c3n[nH]c4c3C(O)(C(F)(F)F)CC(=O)N4)CC2)n1 (stereo not shown) [Example 30]
Looking at recorded values for EC50, does P or Q come in lower? # respond with the chosen item's label
P

1. O=C1CC(O)(C(F)(F)F)c2c(C3CCN(c4cncc(C(F)(F)F)c4)CC3)n[nH]c2N1 (stereo not shown) [Example 53]
2. Cc1ccc(N2CCC(c3n[nH]c4c3C(O)(C(F)(F)F)CC(=O)N4)CC2)nc1 (stereo not shown) [Example 4]
Out of 1 and 2 , name the one with the higher EC50. # respond with the chosen item's label
2

A. O=C1CC(O)(C(F)(F)F)c2c(C3CCN(c4ccc(C5CC5)cn4)CC3)n[nH]c2N1 (stereo not shown) [Example 99]
B. N#Cc1ccc(N2CCC(c3n[nH]c4c3C(O)(C(F)(F)F)CC(=O)N4)CC2)cn1 (stereo not shown) [Example 19]
C. CC(C)(C)c1ncc(N2CCC(c3n[nH]c4c3C(O)(C(F)(F)F)CC(=O)N4)CC2)cn1 (stereo not shown) [Example 72]
D. Cc1cncc(N2CCC(c3n[nH]c4c3C(O)(C(F)(F)F)CC(=O)N4)CC2)n1 (stereo not shown) [Example 26]
# sort list by recorded EC50, greatest to least Could you list the labels in the order requested?
B, D, A, C
(B: 650 nM, D: 260 nM, A: 75 nM, C: 23 nM)

A. N#Cc1cc(C(F)(F)F)cnc1N1CCC(c2n[nH]c3c2C(O)(C(F)(F)F)CC(=O)N3)CC1 (stereo not shown) [Example 101]
B. O=C1CC(O)(C(F)(F)F)c2c(C3CCN(c4ccc(OC(F)F)cc4)CC3)n[nH]c2N1 (single isomer, unassigned; (+)) [Compound 56-2]
Out of A and B , name the one with the higher EC50. # respond with the chosen item's label
B
(B: 980 nM, A: 170 nM)

I. O=C1CC(O)(C(F)(F)F)c2c(C3CCN(c4cc(C(F)(F)F)nc(C5CC5)n4)CC3)n[nH]c2N1 (stereo not shown) [Example 92]
II. COc1ccc(N2CCC(c3n[nH]c4c3C(O)(C(F)(F)F)CC(=O)N4)CC2)cn1 (stereo not shown) [Example 32]
Looking at recorded values for EC50, does I or II come in lower? # respond with the chosen item's label
I
(I: 210 nM, II: 300 nM)

I. N#Cc1ccc(N2CCC(c3n[nH]c4c3C(O)(C(F)(F)F)CC(=O)N4)CC2)nc1Cl (stereo not shown) [Example 21]
II. COC(=O)c1nc(N2CCC(c3n[nH]c4c3C(O)(C(F)(F)F)CC(=O)N4)CC2)ccc1C(F)(F)F (stereo not shown) [Example 77]
Looking at recorded values for EC50, does I or II come in lower? # respond with the chosen item's label
II

I. N#Cc1cc(N2CCC(c3n[nH]c4c3C(O)(C(F)(F)F)CC(=O)N4)CC2)ccc1OC(F)F (stereo not shown) [Example 60]
II. O=C1CC(O)(C(F)(F)F)c2c(C3CCN(c4ccccn4)CC3)n[nH]c2N1 (stereo not shown) [Example 2]
Out of I and II , name the one with the higher EC50. # respond with the chosen item's label
II

A. O=C1CC(O)(C(F)(F)F)c2c(C3CCN(c4ncc(C(F)(F)F)cc4F)CC3)n[nH]c2N1 (stereo not shown) [Example 96]
B. Cc1cc(N2CCC(c3n[nH]c4c3C(O)(C(F)(F)F)CC(=O)N4)CC2)ncc1C#N (stereo not shown) [Example 42]
Out of A and B , name the one with the higher EC50. # respond with the chosen item's label
A
(A: 220 nM, B: 140 nM)

====

subject of test: LCAT (Homo sapiens, UniProt P04180)
Construct: The obtained fraction was dialyzed against phosphate-buffered saline (pH 7.4) and used as an enzyme source and an acceptor for LCAT; from tissue; host or cells: HDL3 fraction (1.125<specific gravity<1.210 g/mL) of plasma from a healthy person
Sequence (P04180 25-440): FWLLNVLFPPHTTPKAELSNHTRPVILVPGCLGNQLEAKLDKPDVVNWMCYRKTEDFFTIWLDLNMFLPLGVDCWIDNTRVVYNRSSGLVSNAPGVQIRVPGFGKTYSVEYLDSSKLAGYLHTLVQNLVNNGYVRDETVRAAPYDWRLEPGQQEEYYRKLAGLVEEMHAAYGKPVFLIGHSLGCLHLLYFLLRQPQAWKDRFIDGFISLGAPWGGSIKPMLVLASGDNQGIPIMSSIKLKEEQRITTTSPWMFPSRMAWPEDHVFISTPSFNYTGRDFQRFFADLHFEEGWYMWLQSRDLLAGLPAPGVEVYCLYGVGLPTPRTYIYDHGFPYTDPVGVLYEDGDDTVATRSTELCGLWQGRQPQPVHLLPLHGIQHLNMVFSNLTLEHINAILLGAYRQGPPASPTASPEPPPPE
method notes: LCAT Activity Measurement (In Vitro)
Assay type: biochemical
test context: EC50 of LCAT activation; HDL3 fraction from plasma of a healthy person as enzyme source and acceptor; [14C]cholesterol; 37° C., approximately 16 hours
Description: A fraction composed of HDL3 (1.125<specific gravity<1.210 g/mL) was obtained from the plasma of a healthy person by density gradient centrifugation. […] The radioactivity of a portion corresponding to cholesterol oleate was measured using an imaging analyzer BAS-2500 (manufactured by Fujifilm Corp.). […] The EC50 value of LCAT activation was calculated according to the expression given below relative to LCAT activity in the sample non-supplemented with the test drug. […]
pEC50: −log10 of the molar value.
measurement type: pEC50

- molecule: "CN(C)C(=O)c1nc(N2CCC(c3n[nH]c4c3C(O)(C(F)(F)F)CC(=O)N4)CC2)ccc1C(F)(F)F (stereo not drawn)"
  subject of test: "LCAT (Homo sapiens, UniProt P04180)"
  pEC50: 6.38
- molecule: "O=C1CC(O)(C(F)(F)F)c2c(C3CCN(c4ccc(OC(F)F)cc4)CC3)n[nH]c2N1 (single isomer, unassigned; (-)) [Compound 56-1]"
  subject of test: "LCAT (Homo sapiens, UniProt P04180)"
  pEC50: 7.35
- molecule: "Cc1cccnc1N1CCC(c2n[nH]c3c2C(O)(C(F)(F)F)CC(=O)N3)CC1 (stereo not drawn)"
  subject of test: "LCAT (Homo sapiens, UniProt P04180)"
  pEC50: 5.90
- molecule: "N#Cc1cnc(N2CCC(c3n[nH]c4c3C(O)(C(F)(F)F)CC(=O)N4)CC2)c(C(F)(F)F)c1 (stereo not drawn)"
  subject of test: "LCAT (Homo sapiens, UniProt P04180)"
  pEC50: 5.96
- molecule: "O=C1CC(O)(C(F)(F)F)c2c(C3CCN(c4ccc(OC(F)F)cc4)CC3)n[nH]c2N1 (stereo not drawn) [Example 55]"
  subject of test: "LCAT (Homo sapiens, UniProt P04180)"
  pEC50: 7.10
- molecule: "Cc1nc(N2CCC(c3n[nH]c4c3C(O)(C(F)(F)F)CC(=O)N4)CC2)cc(C(F)(F)F)n1 (stereo not drawn)"
  subject of test: "LCAT (Homo sapiens, UniProt P04180)"
  pEC50: 6.52
- molecule: "N#Cc1nc(N2CCC(c3n[nH]c4c3C(O)(C(F)(F)F)CC(=O)N4)CC2)ccc1C(F)(F)F (stereo not drawn)"
  subject of test: "LCAT (Homo sapiens, UniProt P04180)"
  pEC50: 7.82
- molecule: "O=C1CC(O)(C(F)(F)F)c2c(C3CCN(c4nc(-c5ccccc5)cs4)CC3)n[nH]c2N1 (stereo not drawn)"
  subject of test: "LCAT (Homo sapiens, UniProt P04180)"
  pEC50: 6.51

I. CCc1ccc(N2CCC(c3n[nH]c4c3C(O)(C(F)(F)F)CC(=O)N4)CC2)nc1 (stereo not drawn)
II. O=C1CC(O)(C(F)(F)F)c2c(C3CCN(c4cc(C(=O)OCc5ccccc5)c(C(F)(F)F)cn4)CC3)n[nH]c2N1 (stereo not drawn)
Out of I and II , name the one with the higher pEC50. # respond with the chosen item's label
II
(II: 7.89, I: 7.08)
